What melting point was measured for each of the following?
Structures can show the parent of a compound that is named as a salt.

[Q] // lookup melting point for CCCSc1ccc2c(c1)N(C[C@H](C)N)CC2 (as salt: fumarate) [Example 41]
[A] 147 to 148 °C

[Q] // lookup melting point for C[C@H](N)CN1CCc2cc(F)c(Br)cc21 (as salt: fumarate) [Example 25]
[A] 195 to 196 °C

[Q] // lookup melting point for C[C@H](N)CN1CCc2ccc(N3CCOCC3)cc21 (as salt: fumarate) [Example 49]
[A] 188 to 191 °C (dec.)

[Q] // lookup melting point for Cc1cc2c(cc1Cl)N(C[C@H](C)N)CC2 (as salt: fumarate) [Example 14]
[A] 172 to 174 °C

[Q] // lookup melting point for C[C@H](N)CN1CCc2cc(F)c(F)cc21 (as salt: fumarate) [Example 22]
[A] 165 °C (dec.)

[Q] // lookup melting point for CC(N)CN1CCc2ccc(OCc3ccccc3)cc21 (centres unmarked)
[A] 178 to 179 °C

[Q] // lookup melting point for CSc1cc2c(cc1F)CCN2CC(C)N (centres unmarked) (as salt: fumarate) [Example 30]
[A] 96 to 100 °C

[Q] // lookup melting point for COc1ccc2c(c1)N(C[C@H](C)N)CC2 (as salt: fumarate) [Example 13]
[A] 175 to 176 °C

[Q] // lookup melting point for C[C@H](N)CN1CCc2cc(F)ccc21 (as salt: fumarate) [Example 29]
[A] 175 to 176 °C

[Q] // lookup melting point for COc1cccc2c1N(C[C@H](C)N)CC2 (as salt: fumarate)
[A] 155 to 156 °C (dec.)

[Q] // lookup melting point for Cc1cccc2c1CCN2C[C@H](C)N (as salt: fumarate) [Example 32]
[A] 161 to 162 °C

[Q] // lookup melting point for CC(C)CN[C@@H](C)CN1CCc2ccc(Br)cc21 (as salt: HCl)
[A] 151 to 153 °C

[Q] // lookup melting point for CC(C)Sc1ccc2c(c1)N(C[C@H](C)N)CC2 (as salt: fumarate) [Example 42]
[A] 164 to 165 °C

[Q] // lookup melting point for C[C@@H](CN1CCc2ccc(Br)cc21)NCC1CCCCC1 (as salt: HCl)
[A] 208 to 210 °C

[Q] // lookup melting point for C[C@@H](CN1CCc2ccc(Br)cc21)NCc1ccncc1 (as salt: HCl)
[A] 202 to 204 °C

[Q] // lookup melting point for C[C@@H](CN1CCc2ccc(Br)cc21)NCC1CC1 (as salt: HCl)
[A] 155 to 156 °C

[Q] // lookup melting point for "C[C@H](N)CN1CCc2ccc(-c3ccccc3)cc21.O=C(O)/C=C/C(=O)O"
[A] 153 to 154 °C

[Q] // lookup melting point for C[C@H](N)CN1CCc2ccc(F)cc21 (as salt: fumarate) [Example 9]
[A] 150 to 153 °C

[Q] // lookup melting point for C[C@H](N)CN1CCc2ccc(C(F)(F)F)cc21 (as salt: fumarate) [Example 24]
[A] 197 to 199 °C

[Q] // lookup melting point for CC(N)CN1CCc2cc(OCc3ccccc3)ccc21 (centres unmarked) (as salt: fumarate) (hydrate or solvate)
[A] 143 to 144 °C
